cell viability values by entry
Test system: HepG2
Assay: cell viability relative to DMSO; higher = less toxic
Conditions: 72 h; 100 nM
Write the number in % without appending the unit.

Check out these entries, answers already filled in.
COMPOUND: c1ccc(-c2ccc(C(c3ccccc3)n3ccnc3)cc2)cc1 (stereo unspecified)
cell viability (%): 91.8
--
COMPOUND: O=C(C=Cc1ccccc1)NC(NC(=S)Nc1ccc(Cl)cc1)C(Cl)(Cl)Cl (stereo unspecified)
cell viability (%): 96.2
--
COMPOUND: CC(C)C[C@H](NC(=O)CNC(=O)c1cc(Cl)ccc1Cl)B1OC(=O)C(CC(=O)O)(CC(=O)O)O1 [ixazomib-citrate]
cell viability (%): 98
--
COMPOUND: CCn1cc(C(=O)O)c(=O)c2ccc(C)nc21
cell viability (%): 90
--
COMPOUND: CN(C)C(=O)C(=O)c1cn(C)c2cc(Cl)c(C(=O)N3CCC(Cc4ccc(F)cc4)CC3)cc12
cell viability (%): 104
--
COMPOUND: NCCC(=O)N[C@@H](Cc1c[nH]cn1)C(=O)O
cell viability (%): 97

// cell viability (HepG2) for O=C1O[C@H]([C@@H](O)CO)C(O)=C1O = 108

// cell viability (HepG2) for CC(C)Nc1cc(-c2c[nH]c(C(=O)N[C@H](CO)c3cccc(Cl)c3)c2)c(Cl)cn1 = 92.6

// cell viability (HepG2) for COc1ccc(N2CCOCC2)c2sc(NC(=O)N3CCC(C)(O)CC3)nc12 = 109

// cell viability (HepG2) for CC(C)[C@H](C(=O)Nc1ccc(C(=O)NO)cc1)c1ccccc1 = 75.3

// cell viability (HepG2) for Cc1noc(-c2ccc(-c3ccc(CC(=O)O)cc3)cc2)c1NC(=O)O[C@H](C)c1ccccc1 = 99.8
